assaySummary: Selectivity index, ratio of CC50 for African green monkey Vero cells to EC50 for SARS-CoV-2 infected in African green monkey Vero E6 cells in presence of CP100356
Assay type: toxicity, Vero C1008
conditionSummary: SARS-CoV-2-infected Vero E6 cells (EC50), with CP100356 (concentration not stated)
The compounds listed here are annotated with their selectivity ratio.

Which selectivity ratio is reported for this compound? O=C(NCCc1ccccc1F)C(=O)[C@H](C[C@@H]1CCNC1=O)NC(=O)[C@@H]1CCCN1C(=O)OCc1ccccc1
> 4.4

Which selectivity ratio is reported for this compound? O=C(NCCc1ccccc1)C(=O)[C@H](C[C@@H]1CCNC1=O)NC(=O)[C@@H]1CCCN1C(=O)OCc1ccccc1
> 6.7

Which selectivity ratio is reported for this compound? O=C(NCc1ccccc1)C(=O)[C@H](C[C@@H]1CCNC1=O)NC(=O)[C@@H]1CCCN1S(=O)(=O)Cc1ccccc1
> 2.3

---

The molecules listed here are annotated with their selectivity ratio.
assaySummary: Selectivity index, ratio of CC50 for African green monkey Vero cells to EC50 for SARS-CoV-2 infected in African green monkey Vero E6 cells in presence of CP100356
Type: toxicity, Vero C1008
conditionSummary: SARS-CoV-2-infected Vero E6 cells (EC50), with CP100356 (concentration not stated)

Would you please look over these solved cases?
molecule: O=C(NCc1ccccc1)C(=O)[C@H](C[C@@H]1CCNC1=O)NC(=O)[C@@H]1CCCN1C(=O)COc1ccc(Cl)cc1Cl
assayResult: > 22.2
//
molecule: COc1ccccc1CCNC(=O)C(=O)[C@H](C[C@@H]1CCNC1=O)NC(=O)[C@@H]1CCCN1C(=O)OCc1ccccc1
assayResult: > 3.3
//
molecule: COc1ccc(CCNC(=O)C(=O)[C@H](C[C@@H]2CCNC2=O)NC(=O)[C@@H]2CCCN2C(=O)COc2ccc(Cl)cc2Cl)c(OC)c1
assayResult: > 14

Which selectivity ratio is reported for this molecule? O=C(NCCc1ccccc1)C(=O)[C@H](C[C@@H]1CCNC1=O)NC(=O)[C@@H]1CCCN1C(=O)COc1ccc(Cl)cc1Cl
> 12.5

Which selectivity ratio is reported for this molecule? O=C(NCCc1ccccc1F)C(=O)[C@H](C[C@@H]1CCNC1=O)NC(=O)[C@@H]1CCCN1C(=O)COc1ccc(Cl)cc1Cl
> 100

Which selectivity ratio is reported for this molecule? COc1ccccc1CCNC(=O)C(=O)[C@H](C[C@@H]1CCNC1=O)NC(=O)[C@@H]1CCCN1C(=O)COc1ccc(Cl)cc1Cl
> 10.4
